// data source = patent US10328053B2

test: Hepatic Stability Assay (in vitro half-life method); assay type: in vitro ADME; set-up: dose or concentration left out as unconfirmed; details: pooled cryopreserved hepatocytes, 37° C., 1×10^6 cells/mL, 0-6 hours, LC-MS/MS, 39.5 hours is the maximum detectable half life, read-out: t½ (converted)
Please respond with YES when measured half-life is strictly beneath 10 h, and with NO in all other cases.

Would you kindly verify if half-life of CNC(=O)C1(NC(=O)C(=O)c2c(C)c(C(=O)Nc3ccc(F)c(Cl)c3)n3c2C[C@@H](O)C3)CC(F)(F)C1 is strictly less than 10 h?
NO

Thanks! And CNC(=O)C1(NC(=O)C(=O)c2c(C)c(C(=O)Nc3ccc(F)c(Cl)c3)n3c2CCC3(C)C)CC(F)(F)C1 ?
YES

Thanks! And Cc1c(C(=O)C(=O)NC2(C(=O)N3CC4(COC4)C3)CC(F)(F)C2)c2n(c1C(=O)Nc1ccc(F)c(Cl)c1)CCC2 ?
YES

Thanks! And Cc1c(C(=O)C(=O)NC2(C)CS(=O)(=O)C2)c2n(c1C(=O)Nc1cc(F)c(F)c(F)c1)[C@@H]1C[C@@H]1C2 ?
NO

Thanks! And CNC(=O)C1(NC(=O)C(=O)c2c(C)c(C(=O)Nc3ccc(F)c(F)c3)n3c2C[C@H]2C[C@H]23)CC(F)(F)C1 ?
NO

Thanks! And Cc1c(C(=O)C(=O)NC2(c3nnn(C)n3)CC2)c2n(c1C(=O)Nc1ccc(F)c(Cl)c1)CCC2 ?
NO

Thanks! And Cc1c(C(=O)C(=O)NC2(C(F)(F)F)COC2)c2n(c1C(=O)Nc1ccnc(C(F)F)c1)[C@@H]1C[C@@H]1C2 ?
NO

Thanks! And Cc1c(C(=O)C(=O)NC2(c3c[nH]nn3)CC2)c2n(c1C(=O)Nc1cccc(C(F)F)c1)CCC2 ?
YES

Thanks! And Cc1c(C(=O)C(=O)NC2(C(F)(F)F)COC2)c2n(c1C(=O)Nc1ccnc(C(F)F)c1F)C[C@H](F)C2 ?
NO

Thanks! And Cc1c(C(=O)C(=O)NC2(c3nncs3)CC2)c2n(c1C(=O)Nc1ccnc(C(F)F)c1)[C@@H]1C[C@@H]1C2 ?
YES

Continuing:
Would you kindly verify if half-life of Cc1c(C(=O)C(=O)NC2(c3c[nH]nn3)CC2)c2n(c1C(=O)Nc1cccc(C#N)c1)CCC2 is strictly less than 10 h?
NO

Thanks! And Cc1c(C(=O)C(=O)NC2(C(N)=O)CC(F)(F)C2)c2n(c1C(=O)Nc1ccc(F)c(Cl)c1)CCC2 ?
NO

Thanks! And Cc1c(C(=O)C(=O)NC2(c3c[nH]nn3)CC(F)(F)C2)c2n(c1C(=O)Nc1ccnc(C(F)F)c1F)C[C@H](F)C2 ?
NO

Thanks! And Cc1c(C(=O)C(=O)NC2(C(=O)N(C)C)CC(F)(F)C2)c2n(c1C(=O)Nc1ccc(F)c(F)c1)CCC2 ?
YES

====

Below, each entry is listed with its recorded pEC50.
tested on: HBV AD38 viral particles in HepG2 cell line overexpressing NTCP; experiment: HBV DNA Quantification Assay; assay type: cell-based; conditions: Hepatitis B virus, HepG2, 120 h, HBV-infected HepG2-NTCP cells, 5 days incubation, HBV DNA in culture supernatant (QuantiGene 2.0); geometric mean of a minimum of four determinations
Field pEC50 (float): negative decimal logarithm of the concentration in molar.

Worked cases, pEC50 given:
Reported pEC50 for Cc1c(C(=O)C(=O)NC2(C(=O)N3CC4(COC4)C3)CC(F)(F)C2)c2n(c1C(=O)Nc1ccc(F)c(Cl)c1)CCC2 : what is it?
7.49

Thanks! And Cc1c(C(=O)C(=O)NC2(c3c[nH]nn3)COC2)c2n(c1C(=O)Nc1ccc(F)c(F)c1)[C@@H]1C[C@@H]1C2 ?
7.90

Thanks! And CNC(=O)C1(NC(=O)C(=O)c2c(C)c(C(=O)Nc3ccc(F)c(Cl)c3)n3c2[C@@H]2C[C@@H]2C3)CC(F)(F)C1 ?
7.57

Thanks! And C#CC1(NC(=O)C(=O)c2c(C)c(C(=O)Nc3ccc(F)c(Cl)c3)n3c2CCC3)CC1 ?
8.24

Thanks! And Cc1c(C(=O)C(=O)NC2(c3c[nH]nn3)CC(F)(F)C2)c2n(c1C(=O)Nc1ccc(F)c(F)c1)CCC2 ?
8.49

Thanks! And Cc1c(C(=O)C(=O)NC2(c3c[nH]nn3)CC2)c2n(c1C(=O)Nc1cccc(Cl)c1)CCC2 ?
7.38

Read the next record carefully.
Reported pEC50 for Cc1c(C(=O)C(=O)N[C@](C)(CO)C(F)(F)F)c2n(c1C(=O)Nc1ccc(F)c(Cl)c1)CCC2 : what is it?
8.08
